# SUBJECT OF TEST: huCTLA4 (Homo sapiens, UniProt P16410)
# Sequence (P16410 36-223): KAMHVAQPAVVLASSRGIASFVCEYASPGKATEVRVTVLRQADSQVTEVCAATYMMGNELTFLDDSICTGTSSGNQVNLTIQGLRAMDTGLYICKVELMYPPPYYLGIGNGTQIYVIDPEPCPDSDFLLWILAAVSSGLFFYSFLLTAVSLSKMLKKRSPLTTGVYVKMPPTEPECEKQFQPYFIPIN
# METHOD: Flow binding to CHO cells stably expressing CTLA4
# Set-up: huCTLA4 and huPD-L1, full-length mammalian surface expression constructs were generated; expressed in transfected cells; host or cells: CHO cells, lentiviral transduction, sorted to >98% purity
# RECORDED CONDITIONS: Table E20; MFI at 33.3 nM relative to CD80 WT IgV-Fc
Reported CTLA4 Fold change to WT CD80 by item:
READOUT LABEL: CTLA4 Fold change to WT CD80 (fold)

[[record]]
molecule = "H18Y/A26E/M47L/A71G (protein) VIHVTKEVKEVATLSCGYNVSVEELEQTRIYWQKEKKMVLTMMSGDLNIWPEYKNRTIFDITNNLSIVILGLRPSDEGTYECVVLKYEKDAFKREHLAEVTLSVKAD"
measured_result = 16.3

[[record]]
molecule = "E35D/M47L/V68M/D90G (protein) VIHVTKEVKEVATLSCGHNVSVEELAQTRIYWQKDKKMVLTMMSGDLNIWPEYKNRTIFDITNNLSIMILALRPSDEGTYECVVLKYEKGAFKREHLAEVTLSVKAD"
measured_result = 20.3

[[record]]
molecule = "A26E/E35D/M47L/D90G (protein) VIHVTKEVKEVATLSCGHNVSVEELEQTRIYWQKDKKMVLTMMSGDLNIWPEYKNRTIFDITNNLSIVILALRPSDEGTYECVVLKYEKGAFKREHLAEVTLSVKAD"
measured_result = 13.4

[[record]]
molecule = "H18Y/A26E/E35D/M47L (protein) VIHVTKEVKEVATLSCGYNVSVEELEQTRIYWQKDKKMVLTMMSGDLNIWPEYKNRTIFDITNNLSIVILALRPSDEGTYECVVLKYEKDAFKREHLAEVTLSVKAD"
measured_result = 17.7

[[record]]
molecule = "A26E/E35D/V68M/D90G (protein) VIHVTKEVKEVATLSCGHNVSVEELEQTRIYWQKDKKMVLTMMSGDMNIWPEYKNRTIFDITNNLSIMILALRPSDEGTYECVVLKYEKGAFKREHLAEVTLSVKAD"
measured_result = 10.2

[[record]]
molecule = "H18Y/V68M/A71G/D90G (protein) VIHVTKEVKEVATLSCGYNVSVEELAQTRIYWQKEKKMVLTMMSGDMNIWPEYKNRTIFDITNNLSIMILGLRPSDEGTYECVVLKYEKGAFKREHLAEVTLSVKAD"
measured_result = 16.4

[[record]]
molecule = "E35D/M47L/A71G/D90G (protein) VIHVTKEVKEVATLSCGHNVSVEELAQTRIYWQKDKKMVLTMMSGDLNIWPEYKNRTIFDITNNLSIVILGLRPSDEGTYECVVLKYEKGAFKREHLAEVTLSVKAD"
measured_result = 15.4

[[record]]
molecule = "H18Y/A26E/V68M/A71G (protein) VIHVTKEVKEVATLSCGYNVSVEELEQTRIYWQKEKKMVLTMMSGDMNIWPEYKNRTIFDITNNLSIMILGLRPSDEGTYECVVLKYEKDAFKREHLAEVTLSVKAD"
measured_result = 8.3

[[record]]
molecule = "A26E/M47L/A71G/D90G (protein) VIHVTKEVKEVATLSCGHNVSVEELEQTRIYWQKEKKMVLTMMSGDLNIWPEYKNRTIFDITNNLSIVILGLRPSDEGTYECVVLKYEKGAFKREHLAEVTLSVKAD"
measured_result = 16.2

[[record]]
molecule = "H18Y/A26E/V68M/D90G (protein) VIHVTKEVKEVATLSCGYNVSVEELEQTRIYWQKEKKMVLTMMSGDMNIWPEYKNRTIFDITNNLSIMILALRPSDEGTYECVVLKYEKGAFKREHLAEVTLSVKAD"
measured_result = 19.0

[[record]]
molecule = "M47L/V68M/A71G/D90G (protein) VIHVTKEVKEVATLSCGHNVSVEELAQTRIYWQKEKKMVLTMMSGDLNIWPEYKNRTIFDITNNLSIMILGLRPSDEGTYECVVLKYEKGAFKREHLAEVTLSVKAD"
measured_result = 12.8

[[record]]
molecule = "H18Y/M47L/V68M/D90G (protein) VIHVTKEVKEVATLSCGYNVSVEELAQTRIYWQKEKKMVLTMMSGDLNIWPEYKNRTIFDITNNLSIMILALRPSDEGTYECVVLKYEKGAFKREHLAEVTLSVKAD"
measured_result = 14.0

[[record]]
molecule = "H18Y/E35D/A71G/D90G (protein) VIHVTKEVKEVATLSCGYNVSVEELAQTRIYWQKDKKMVLTMMSGDMNIWPEYKNRTIFDITNNLSIVILGLRPSDEGTYECVVLKYEKGAFKREHLAEVTLSVKAD"
measured_result = 19.0

